# System: biotinyl-Trp-oxazolone
# test.details: self-aminoacylation, catalytic enhancement (BWO) (fold over background); higher = more active; k-Seq, kA / k0A0; sequences stand for … in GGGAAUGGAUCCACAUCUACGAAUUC…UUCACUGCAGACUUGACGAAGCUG
Fewer inactive variants are shown than the library holds.
property.measured: self-aminoacylation
Give bare numbers.

AAGUUUCCUAAUAGUCGCAAA [Fam3.1 aminoacylation ribozyme variant]
1.96
AGUCACCUAGGUCAUCGAGUG [Fam2.2 aminoacylation ribozyme variant]
4.19
AUUCACCUAGGUCAUCGGGAC [Fam2.2 aminoacylation ribozyme variant]
2.55
AUUACUAUGGUCAUCGAGUGA [Fam2.1 aminoacylation ribozyme variant]
8.33
AUUACCCAGGUCAUCCAGUGA [Fam2.1 aminoacylation ribozyme variant]
6.41
AAGUUUUCUAAUAGUCGCAUG [Fam3.1 aminoacylation ribozyme variant]
1.91
CUUCUUCAGACAAUCGGUCUG [Fam1A.1 aminoacylation ribozyme variant]
0.559
GUUACCCUGGUCAUCGAGUGG [Fam2.1 aminoacylation ribozyme variant]
50
CCACACUUCAAGCAAUCGCAC [Fam1B.1 aminoacylation ribozyme variant]
0.672
CCACCCUUCAAACAAUCGGUC [Fam1B.1 aminoacylation ribozyme variant]
38.9

Record self-aminoacylation for all entries; do not skip any.
1. AUGUUUGCUAAUUGUCGCAAG [Fam3.1 aminoacylation ribozyme variant]
2. AUUCACCUAGGCCAGCGGGUG [Fam2.2 aminoacylation ribozyme variant]
3. AUUACCCUGGUCGUAGAGUGA [Fam2.1 aminoacylation ribozyme variant]
4. AAGUUUGCUAAUAGCAGCAAG [Fam3.1 aminoacylation ribozyme variant]

stdout:
1: 2.13; 2: 3.78; 3: 2.26; 4: 0.754
